Entry source: paper PMC6520365

Molecular target: PDZ domain of the human protein tyrosine phosphatase non-receptor type 3 (PTPN3-PDZ) (human, UniProt P26045-1 504-913, Start 504 is printed. End 597 comes from the 6HKS entity and fits the printed 94 residues (89 non-Pro). GST removed by TEV; any residual tag residues left out.)
Sequence (P26045 504-913): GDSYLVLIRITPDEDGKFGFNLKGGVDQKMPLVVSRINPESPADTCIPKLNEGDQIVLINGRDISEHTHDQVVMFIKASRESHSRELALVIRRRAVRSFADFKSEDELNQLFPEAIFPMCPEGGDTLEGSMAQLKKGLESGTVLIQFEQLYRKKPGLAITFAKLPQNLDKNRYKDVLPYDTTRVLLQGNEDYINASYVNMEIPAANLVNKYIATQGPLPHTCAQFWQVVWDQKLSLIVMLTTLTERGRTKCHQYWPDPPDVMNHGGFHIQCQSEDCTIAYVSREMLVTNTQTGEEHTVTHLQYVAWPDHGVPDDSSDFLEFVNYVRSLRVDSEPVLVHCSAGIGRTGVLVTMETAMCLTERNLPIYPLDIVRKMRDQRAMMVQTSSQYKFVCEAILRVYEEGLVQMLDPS
Assay: NMR titration; unlabeled peptide added stepwise to 15N-labeled PTPN3-PDZ at 95 or 149 μM; 1H,15N HSQC chemical shift perturbations; 15 °C; 50 mM Tris/HCl pH 7.5, 150 mM NaCl, 0.5 mM TCEP; KD from 8 to 14 fitted curves
Details: both partners purified
parameter: pKd
Just the number, please; pKd means minus log10 of the concentration in mol/L.

Measured pKd of RSSRTRRETQL (Only the last seven residues (TRRETQL) are seen in the crystal; also called PBM of HPV16 E6; source: synthetic peptide (Fmoc solid phase, Proteogenix)) [HPV16E6 PBM peptide (C-terminal sequence of the human papillomavirus type 16 E6 protein)] : 4.28

Continuing:
Measured pKd of SWARVSKETPL (also called MAPK12 PBM; source: synthetic peptide (Fmoc solid phase, Proteogenix)) [p38γ PBM peptide (C-terminal sequence of the MAP kinase p38γ)] : 4.59

Measured pKd of RRRRSQSRESQC (also called HBV Core PBM; source: synthetic peptide (Fmoc solid phase, Proteogenix)) [HBVc PBM peptide (C-terminal sequence of the hepatitis B virus core protein)] : 4.54
